molecular target: SST2 (Homo sapiens, UniProt P30874); construct: host or cells: PathHunter CHO-K1 SST2 cells; test: PathHunter CHO-K1 SST2 Internalization Assay; assay type: cell-based; conditions: PathHunter CHO-K1 SST2 cells; 90 min at 37 C; luminescence; read-out: Internalization EC50
Sequence (P30874 whole entry): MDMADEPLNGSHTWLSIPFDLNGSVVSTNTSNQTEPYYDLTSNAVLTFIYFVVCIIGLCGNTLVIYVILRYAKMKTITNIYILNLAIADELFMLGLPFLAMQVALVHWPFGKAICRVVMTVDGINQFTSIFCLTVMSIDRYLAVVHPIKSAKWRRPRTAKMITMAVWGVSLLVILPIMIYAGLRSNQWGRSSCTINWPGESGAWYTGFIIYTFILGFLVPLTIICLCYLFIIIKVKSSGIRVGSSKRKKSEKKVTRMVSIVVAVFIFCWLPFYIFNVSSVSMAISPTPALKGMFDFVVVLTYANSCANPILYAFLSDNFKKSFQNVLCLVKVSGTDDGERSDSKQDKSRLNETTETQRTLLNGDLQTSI
Overview of recorded pEC50 for various molecules
// field semantics: pEC50 = negative decimal log of concentration (mol/L)

# molecule, pEC50
measured = [
    ("CC[C@H](C)[C@@H]([C@@H](CC(=O)N1CCC[C@H]1[C@H](OC)[C@@H](C)C(=O)N[C@H](C)[C@@H](O)c1ccccc1)OC)N(C)C(=O)[C@@H](NC(=O)[C@H](C(C)C)N(C)C(=O)OCc1ccc(NC(=O)[C@H](C)NC(=O)[C@@H](NC(=O)CCOCCC(=O)NCCNc2ncc(-c3cncc(C)c3)c(N3CCC(N)CC3)c2-c2nc3ccc(Cl)cc3[nH]2)C(C)C)c(O[C@@H]2O[C@H](C(=O)O)[C@@H](O)[C@H](O)[C@H]2O)c1)C(C)C [Compound 129]", 6.02),
    ("CC[C@H](C)[C@@H]([C@@H](CC(=O)N1CCC[C@H]1[C@H](OC)[C@@H](C)C(=O)N[C@H](C)[C@@H](O)c1ccccc1)OC)N(C)C(=O)[C@@H](NC(=O)[C@H](C(C)C)N(C)C(=O)OCc1ccc(NC(=O)[C@H](CCCNC(N)=O)NC(=O)[C@@H](NC(=O)CCOCCC(=O)NCCNc2ncc(-c3cc(C)cc(F)c3)c(N3CCC(N)CC3)c2-c2nc3ccc(Cl)cc3[nH]2)C(C)C)c(OC)c1)C(C)C [Compound 11]", 8.00),
]

Exercise: Requested read-out: pEC50. Entry: CC[C@H](C)[C@@H]([C@@H](CC(=O)N1CCC[C@H]1[C@H](OC)[C@@H](C)C(=O)N[C@H](C)[C@@H](O)c1ccccc1)OC)N(C)C(=O)[C@@H](NC(=O)[C@H](C(C)C)N(C)C(=O)OCc1ccc(NC(=O)[C@H](CCCNC(N)=O)NC(=O)[C@@H](NC(=O)c2cc(NCCOCCC(=O)NCCNc3ncc(-c4cc(C)cc(F)c4)c(N4CCC(N)CC4)c3-c3nc4ccc(Cl)cc4[nH]3)cc(C(=O)NCCN(CC(=O)O)CC(=O)O)c2)C(C)C)cc1C(=O)NCCN)C(C)C [Compound 58]
Solution: 7.85

Exercise: Endpoint output: pEC50 of CC[C@H](C)[C@@H]([C@@H](CC(=O)N1CCC[C@H]1[C@H](OC)[C@@H](C)C(=O)N[C@H](C)[C@@H](O)c1ccccc1)OC)N(C)C(=O)[C@@H](NC(=O)[C@H](C(C)C)N(C)C(=O)OCc1ccc(NC(=O)[C@H](CCCNC(N)=O)NC(=O)[C@@H](NC(=O)CCOCCOCCOCCOCCNc2ncc(C(=O)NCCNc3ncc(-c4cc(C)cc(F)c4)c(N4CCC(N)CC4)c3-c3nc4ccc(Cl)cc4[nH]3)cn2)C(C)C)cc1)C(C)C [Compound 180] . Value?
Solution: 7.80

Exercise: Value lookup for pEC50; key = CC[C@H](C)[C@@H]([C@@H](CC(=O)N1CCC[C@H]1[C@H](OC)[C@@H](C)C(=O)N[C@H](C)[C@@H](O)c1ccccc1)OC)N(C)C(=O)[C@@H](NC(=O)[C@H](C(C)C)N(C)C(=O)OCc1ccc(NC(=O)[C@H](C)NC(=O)[C@@H](NC(=O)CCOCCC(=O)NCCNc2ncc(-c3cc(C)cc(F)c3)c(N3CCC(N)CC3)c2-c2nc3cnccc3[nH]2)C(C)C)c(O[C@@H]2O[C@H](C(=O)O)[C@@H](O)[C@H](O)[C@H]2O)c1)C(C)C [Compound 127]
Solution: 6.54
